experimentalSystem: Factor X (FX), P00742
Sequence (P00742 whole entry, looked up): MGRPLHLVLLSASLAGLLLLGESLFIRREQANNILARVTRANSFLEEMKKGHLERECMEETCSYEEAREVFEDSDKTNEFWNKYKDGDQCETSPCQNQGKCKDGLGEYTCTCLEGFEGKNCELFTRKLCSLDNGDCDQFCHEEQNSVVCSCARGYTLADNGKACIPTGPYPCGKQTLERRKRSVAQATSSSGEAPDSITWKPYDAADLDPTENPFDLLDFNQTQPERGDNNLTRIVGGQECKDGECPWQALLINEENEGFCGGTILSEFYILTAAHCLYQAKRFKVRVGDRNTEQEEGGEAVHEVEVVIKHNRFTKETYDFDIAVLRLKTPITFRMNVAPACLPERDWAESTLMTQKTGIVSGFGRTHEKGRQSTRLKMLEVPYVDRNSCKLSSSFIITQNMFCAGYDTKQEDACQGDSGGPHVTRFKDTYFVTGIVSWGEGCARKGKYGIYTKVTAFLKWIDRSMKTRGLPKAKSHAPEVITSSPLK

protein	KM [µM]
FIXa-Y155F/R338E/T343R/R403E (protein) chain 1: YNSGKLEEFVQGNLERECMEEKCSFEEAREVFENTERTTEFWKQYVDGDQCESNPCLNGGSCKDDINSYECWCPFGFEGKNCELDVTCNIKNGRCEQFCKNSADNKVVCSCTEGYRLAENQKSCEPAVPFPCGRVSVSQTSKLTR chain 2: VVGGEDAKPGQFPWQVVLNGKVDAFCGGSIVNEKWIVTAAHCVETGVKITVVAGEHNIEETEHTEQKRNVIRIIPHHNYNAAINKYNHDIALLELDEPLVLNSYVTPICIADKEYTNIFLKFGSGYVSGWGRVFHKGRSALVLQYLRVPLVDRATCLESTKFRIYNNMFCAGFHEGGRDSCQGDSGGPHVTEVEGTSFLTGIISWGEECAMKGKYGIYTKVSEYVNWIKEKTKLT	0.0289

Provenance of the data: patent US20210238260
